assayedSystem: TgCDPK1 (Toxoplasma gondii)
Sequence (Q9BJF5 1-507): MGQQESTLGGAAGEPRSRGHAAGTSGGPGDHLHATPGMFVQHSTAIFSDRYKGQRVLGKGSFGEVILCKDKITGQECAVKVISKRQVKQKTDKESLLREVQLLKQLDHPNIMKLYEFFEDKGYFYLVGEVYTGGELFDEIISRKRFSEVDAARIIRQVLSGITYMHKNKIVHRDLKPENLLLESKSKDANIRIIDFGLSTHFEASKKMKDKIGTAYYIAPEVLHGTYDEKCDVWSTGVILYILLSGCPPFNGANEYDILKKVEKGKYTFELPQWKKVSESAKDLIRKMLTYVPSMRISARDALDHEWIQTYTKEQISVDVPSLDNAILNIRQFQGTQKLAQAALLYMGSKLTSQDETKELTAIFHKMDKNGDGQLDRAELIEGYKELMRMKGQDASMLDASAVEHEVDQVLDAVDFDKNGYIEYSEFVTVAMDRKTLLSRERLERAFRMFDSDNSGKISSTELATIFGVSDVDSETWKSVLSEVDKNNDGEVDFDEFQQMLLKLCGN
experiment: biochemical
assayContext: read-out: TgCDPK1 IC50
pIC50: −log10 of the molar value.
parameter: pIC50

compound="NC(=O)c1c(-c2ccc3ccccc3c2)nn(CCN2CCOCC2)c1N [Compound 23]" parameter=pIC50 result=8.30
compound="CCOc1ccc2nc(-c3nn(C(C)(C)C)c(N)c3C(N)=O)ccc2c1 [Compound 36]" parameter=pIC50 result=6.46
compound="NC(=O)c1c(-c2ccc3ccccc3c2)nn(CC2CC2)c1N [Compound 15]" parameter=pIC50 result=8.15
compound="CN1CCC(Cn2nc(-c3ccc4ccccc4c3)c(C(N)=O)c2N)CC1 [Compound 21]" parameter=pIC50 result=7.41
compound="Cn1c(N)nc2cc(-c3nn(C(C)(C)C)c(N)c3C(N)=O)ccc21 [Compound 33]" parameter=pIC50 result=6.14
compound="Cc1oc2ccccc2c1-c1nn(C(C)(C)C)c(N)c1C(N)=O [Compound 27]" parameter=pIC50 result=6.15
compound="NC(=O)c1c(-c2ccc3ccccc3c2)nn(CC2CCNCC2)c1N [Compound 6]" parameter=pIC50 result=7.46
compound="COc1ccc2cc(-c3n[nH]c(N)c3C(N)=O)ccc2c1 [Compound 11]" parameter=pIC50 result=7.09
compound="NC(=O)c1c(-c2ccc3ccccc3c2)nn(CCO)c1N [Compound 22]" parameter=pIC50 result=7.82
compound="Cn1ncc2cc(-c3nn(C(C)(C)C)c(N)c3C(N)=O)ccc21 [Compound 30]" parameter=pIC50 result=7.49
compound="CN1CCC(n2nc(-c3ccc4ccccc4c3)c(C(N)=O)c2N)CC1 [Compound 20]" parameter=pIC50 result=7.59
compound="CC(C)(C)n1nc(-c2ccc3ccccc3n2)c(C(N)=O)c1N [Compound 35]" parameter=pIC50 result=7.31
compound="NC(=O)c1c(-c2ccc3ccccc3c2)nn(C2CCCCC2)c1N [Compound 17]" parameter=pIC50 result=7.96
compound="CC(C)(C)n1nc(-c2ccc3ncccc3c2)c(C(N)=O)c1N [Compound 37]" parameter=pIC50 result=8.00

The measured values listed here are drawn from patent US9518026B2.
